Assignment: determine reported protein stability index for the given variants.
B1: PLD5 (parent)
chain: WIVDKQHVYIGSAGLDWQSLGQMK

# Variants of: B1
# Test description: protein stability index of a GFP-peptide fusion (GPS, HEK-293T) (PSI 1-6); higher = more stable;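 note: lentivirally expressed fusions sorted by FACS into six bins by GFP to DsRed ratio, PSI derived from sequencing read proportions per bin multiplied by bin number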
# Details: c terminus: a fixed tail appended
API note: the answer field is a bare number with no unit suffix.

Problem: Give me measured protein stability index, please, for this variant: WYVDKQHVYIGSAGLDWQSLGQMK [I2Y]
Result: 1.82

Problem: Tell me its protein stability index given WIVDKQHVYIGSAGLDWQSLGQAK [M23A] as the entry.
Result: 1.55

Problem: Report measured protein stability index; entry is WIVDKQHVYIGSAGLQWQSLGQMK [D16Q]
Result: 1.16

Problem: Please list protein stability index recorded for the variant WIVDKQHVYLGSAGLDWQSLGQMK [I10L]
Result: 2.41

Problem: Please look at this variant and report its protein stability index: WIVDKQHVYIESAGLDWQSLGQMK [G11E]
Result: 2.82

Problem: Please supply the value of reported protein stability index for the item WIVDKQHVYIGSAGLDWYSLGQMK [Q18Y]
Result: 2.65

Problem: Let me know recorded protein stability index for WIVDKQRVYIGSAGLDWQSLGQMK [H7R] , thanks.
Result: 2.36

Problem: Return protein stability index for the following variant: WIVDKQHVYIGSYGLDWQSLGQMK [A13Y]
Result: 1.98

Problem: Complete the entry with protein stability index for WIVDKQHVYIGSAGLFWQSLGQMK [D16F]
Result: 2.16

Problem: Assign protein stability index to the following record: WIVDKQHVYIGSAGLDWQSLGSMK [Q22S]
Result: 1.97

Problem: Give the value of protein stability index reported for the following: WIVDKQHVNIGSAGLDWQSLGQMK [Y9N]
Result: 1.81

Problem: Return value of protein stability index for input WIVDKQHVYIGSAGLDWQSLGQHK [M23H] , no commentary.
Result: 1.32

Problem: Identify measured protein stability index associated with WIVDKQHVYIGSAGLDWQSLKQMK [G21K]
Result: 1.54

Problem: Identify the reported protein stability index for the following entry. WIVDKQWVYIGSAGLDWQSLGQMK [H7W]
Result: 3.59

Problem: Tell me protein stability index reported for WIVDKQHVYIGSDGLDWQSLGQMK [A13D]
Result: 1.33

Problem: Query protein stability index for WIVGKQHVYIGSAGLDWQSLGQMK [D4G]
Result: 1.39

Problem: Tell me its protein stability index given FIVDKQHVYIGSAGLDWQSLGQMK [W1F] as the entry.
Result: 2.4

Problem: Tell me protein stability index reported for WLVDKQHVYIGSAGLDWQSLGQMK [I2L]
Result: 1.88

Problem: // Input: RIVDKQHVYIGSAGLDWQSLGQMK [W1R] . Output its protein stability index only.
Result: 2.77

Problem: Provide protein stability index value for the following variant: WIVDKQHVYIGSAGLDWQELGQMK [S19E]
Result: 2.06

Problem: Answer with the recorded protein stability index of WIVDKQHKYIGSAGLDWQSLGQMK [V8K] only.
Result: 1.9

Problem: Name the recorded protein stability index of the item WIVDKQHVYIGSAGTDWQSLGQMK [L15T] in your answer.
Result: 2
